The values you see were collected from patent US20230029453A1.

# system: T1, HLA-B*27:05 (human, biotinylated heavy chain)
# T1 construct: Conditional HLA class I complex as for m1
# procedure_text: UV peptide exchange; HLA class I ELISA
value_type: Average % (%)
Numeric answer only, unit % assumed.

Would you please look over these solved cases?
>  <binder>
SLYHREKQL [Peptide 4, 9-mer SLYHREKQL derived from P22 (SEQ ID NO: 1003)]

>  <measurement_units>
%

>  <Average %>
16.5

$$$$
>  <binder>
LYHREKQLI [Peptide 5, 9-mer LYHREKQLI derived from P22 (SEQ ID NO: 1003)]

>  <measurement_units>
%

>  <Average %>
17.4

$$$$
>  <binder>
YHREKQLIA [Peptide 6, 9-mer YHREKQLIA derived from P22 (SEQ ID NO: 1003)]

>  <measurement_units>
%

>  <Average %>
13.1

$$$$
>  <binder>
LIAMDSAIT [Peptide 10, 9-mer LIAMDSAIT derived from P22 (SEQ ID NO: 1003)]

>  <measurement_units>
%

>  <Average %>
7.3

$$$$
>  <binder>
SLIAMDSAI [Peptide 3, 9-mer SLIAMDSAI derived from FUS1 (SEQ ID NO: 1001)]

>  <measurement_units>
%

>  <Average %>
6.3

$$$$
>  <binder>
HREKQLIAM [Peptide 7, 9-mer HREKQLIAM derived from P22 (SEQ ID NO: 1003)]

>  <measurement_units>
%

>  <Average %>
30.9

$$$$

Tell me the measured Average % of KQLIAMDSA [Peptide 9, 9-mer KQLIAMDSA derived from P22 (SEQ ID NO: 1003)] , please.
10.8

Quick check: Average % of AMDSAITLW [Peptide 1, 9-mer AMDSAITLW derived from FUS1 (SEQ ID NO: 1001)] ?
9.8

Suppose we examine the binder IAMDSAITL [Peptide 2, 9-mer IAMDSAITL derived from FUS1 (SEQ ID NO: 1001)] ; what Average % value has been reported?
9.3
